Exercise: for every item that follows, state its recorded OD450.
Target: T1, recombinant human OX40-Fc (human, UniProt P43489 29-214)
T1 construct: also called rh-OX40-Fc; human OX40 hFC (R & D systems)
T1 sequence: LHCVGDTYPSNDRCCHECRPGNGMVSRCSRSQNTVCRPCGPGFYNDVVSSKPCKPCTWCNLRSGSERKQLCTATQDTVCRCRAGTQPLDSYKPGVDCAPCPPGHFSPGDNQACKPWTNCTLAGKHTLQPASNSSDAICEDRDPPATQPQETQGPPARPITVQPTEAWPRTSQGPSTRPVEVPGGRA
Assay: ELISA, OX40-Fc coated, VHH at 0.32 nM
Numbers only.

{"columns": ["Binder", "OD450"],
 "data": [
  ["pgXX88-84 (VHH, not shown: small tags and cut ends) VHH: EVQLVESGGRLVQAGDSLKLSCTASGRTFSDYVMGWFRQVPGEGRLMVAVITPAGDTTEYADAVKGRFSISKDSAKRTVNLQMNNLKVDDTAVYYCAAGPSWIGMQFGTAEYWGQGTQVTVSS", 0.175]
]}

Your task in this section: give OD450 for each listed record.
1. pgXX88-SZ-15 (VHH, not shown: small tags and cut ends) VHH: QVQLVESGGGLVQPGGSLRLSCSPSEGAFKMLTTGWFRQVLGKEREFVSAISWGGGATYYADSVKGRFTVSRDNAKNTVYLQMNSLKPEDTAVYYCAVDTGNGVATNIRSQSRYDYWGQGTQVTVSS
2. pgXX88-19 (VHH, not shown: small tags and cut ends) VHH: EVQLVESGGGLVQAGGSLRLSCVATGRTRSSTYIMAWFRQAPGKERDFVAAISFIGGSPVYTDSVKGRFTISRVIAENTVHLQMNDLTPEDTALYYCAATDSGPLGPSGPSKYEYWGQGTQVTVSS
3. pgXX88-2 (VHH, not shown: small tags and cut ends) VHH: EVQLVESGGGLVQPGGSLRLSCAASGFAFGDIPMMWVRQAPGKGREWVSSISADSATQSYADSVQDRFTISRDNAKNTLYLEMHILKPEDTAVYYCATTDRPPPGQGTQVTVSS

stdout:
1. 0.736
2. 0.717
3. 0.719
